The values you see were collected from ChEMBL document CHEMBL1152221.

target: Neuronal acetylcholine receptor; alpha4/beta2 (Homo sapiens) (UniProt P17787+P43681); assay: Activity at human alpha4beta2 nAChR assessed as potentiation of nicotine-induced response by fluorescent Ca2+ flux assay relative to nicotine
Returns one of Satisfied or Not satisfied; Satisfied when Efficacy is >= 50%.

Consider the worked cases shown below.
compound	group
CC(C)c1cc(C(C)C)n(C[C@H](OC(=O)Nc2ccc(Oc3ccccc3)cc2)C(C)C)n1	Satisfied
CC[C@H](Cn1nc(C(F)(F)F)cc1C1CCCO1)OC(=O)Nc1ccc(F)cc1F (stereo not given in full)	Not satisfied
CC(C)c1cc(C(C)C)n(C[C@H](OC(=O)Nc2ccncc2)C(C)C)n1	Not satisfied

Task item: # check: Efficacy of `CC(C)c1cc(C(C)C)n(C[C@H](NC(=O)Nc2ccc(F)cc2F)C(C)C)n1` is greater than or equal to 50%
Reply: Not satisfied

Task item: Does the reported Efficacy for `Cc1ccccc1NC(=O)O[C@@H](Cn1nc(C(C)C)cc1C(C)C)C(C)C` fall at or above the 50% mark?
Reply: Not satisfied

Task item: Could you please find out whether `CC(C)[C@H](Cn1nc(C(F)(F)F)cc1-c1ccccc1)OC(=O)Nc1ccc(F)cc1F` has Efficacy that meets 50% or exceeds it?
Reply: Not satisfied

Task item: Kindly determine if Efficacy recorded for `CC[C@H](Cn1nc(C(F)(F)F)cc1C1CCCC1)OC(=O)Nc1ccc(F)cc1F` is above or exactly 50%.
Reply: Satisfied

Task item: Check the entry `CC(C)[C@H](Cn1nc(C(F)(F)F)cc1C(F)(F)F)OC(=O)Nc1ccc(F)cc1F` : does Efficacy equal or exceed 50%?
Reply: Not satisfied

Task item: Hi, just wondering whether CC(C)c1cc(C(C)C)n([C@H](C)[C@@H](C)OC(=O)Nc2ccc(F)cc2F)n1 (racemic) shows Efficacy of 50% or higher.
Reply: Not satisfied

Task item: Please tell me: is the compound `CC(C)[C@H](Cn1cccn1)OC(=O)Nc1ccc(F)cc1F` at or over 50% in terms of Efficacy?
Reply: Not satisfied

Task item: Is Efficacy for `CC(C)c1cc(C(C)C)n(C[C@H](OC(=O)Nc2ccc(F)cc2F)C(C)C)n1` at or above 50%?
Reply: Satisfied

----------
Each item that follows carries a reported EC12.
target: Neuronal acetylcholine receptor; alpha4/beta2 (Homo sapiens) (UniProt P17787+P43681); assay: Activity at human alpha4beta2 nAChR assessed as potentiation of nicotine-induced response by fluorescent Ca2+ flux assay
Number only, in µM; omit the unit.

Worked cases, answers included:
compound	EC12 / µM
Cc1ccc(NC(=O)O[C@@H](Cn2nc(C(C)C)cc2C(C)C)C(C)C)cc1	0.13
CC(C)c1cc(C(C)C)n([C@H](C)[C@@H](C)OC(=O)Nc2ccc(F)cc2F)n1 (racemic)	1.3
CC(C)[C@H](Cn1nccc1C(F)(F)F)OC(=O)Nc1ccc(F)cc1F	2.1
CC(C)c1cc(C(C)C)n([C@@H]2CCC[C@H]2OC(=O)Nc2ccc(F)cc2F)n1	0.25
CC[C@H](Cn1nc(C(F)(F)F)cc1C1CCCC1)OC(=O)Nc1ccc(F)cc1F	0.57

EC12 measured on `CC[C@H](Cn1nc(C(F)(F)F)cc1C1=CCCC1)OC(=O)Nc1ccc(F)cc1F` = 0.46
